Kindly supply the reported IC50 values for the records listed here.
- TEST_SYSTEM: porcine pancreatic α-amylase (Sus scrofa, UniProt P00690)
- Construct: purchased Sigma-Aldrich (St. Louis, MO, USA)
- Sequence (P00690 16-511): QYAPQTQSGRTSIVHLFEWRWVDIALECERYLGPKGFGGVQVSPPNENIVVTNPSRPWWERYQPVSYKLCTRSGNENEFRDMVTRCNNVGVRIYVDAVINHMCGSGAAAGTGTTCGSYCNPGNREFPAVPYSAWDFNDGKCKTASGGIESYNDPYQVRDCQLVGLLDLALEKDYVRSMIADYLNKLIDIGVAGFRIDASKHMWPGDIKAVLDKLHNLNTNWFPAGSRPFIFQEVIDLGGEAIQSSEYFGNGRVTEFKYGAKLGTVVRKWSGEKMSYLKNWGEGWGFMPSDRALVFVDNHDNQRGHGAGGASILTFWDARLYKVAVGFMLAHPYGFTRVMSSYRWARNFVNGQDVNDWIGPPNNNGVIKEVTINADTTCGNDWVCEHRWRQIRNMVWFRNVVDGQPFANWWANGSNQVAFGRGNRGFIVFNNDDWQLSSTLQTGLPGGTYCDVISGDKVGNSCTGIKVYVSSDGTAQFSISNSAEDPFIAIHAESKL
- TEST_DESCRIPTION: α-Amylase inhibition assay in vitro (starch/DNS)
- Type: biochemical
- PARTICULARS: synthetic peptides; enzyme 0.5 U/mL, starch 10 mg/mL, PBS pH 6.9–7.2; 20 min premix, 10 min at 37 °C; DNS, 540 nm; mean ± standard error of the mean, three parallels
Ends that are not written are not given here.
Answers are plain numbers, in mM.

>  <BIOSEQUENCE>
LDQTPRVF

>  <IC50 [mM]>
3.08

$$$$

Now, please, on to the next sequence.
Query block: What value of IC50 has been recorded for this entry: "SRNPIYSN"
Result block: 5.58
